# measurement.target: Long-chain-fatty-acid--AMP ligase FadD28 (Mycobacterium tuberculosis)
# Sequence (P9WQ59 whole entry): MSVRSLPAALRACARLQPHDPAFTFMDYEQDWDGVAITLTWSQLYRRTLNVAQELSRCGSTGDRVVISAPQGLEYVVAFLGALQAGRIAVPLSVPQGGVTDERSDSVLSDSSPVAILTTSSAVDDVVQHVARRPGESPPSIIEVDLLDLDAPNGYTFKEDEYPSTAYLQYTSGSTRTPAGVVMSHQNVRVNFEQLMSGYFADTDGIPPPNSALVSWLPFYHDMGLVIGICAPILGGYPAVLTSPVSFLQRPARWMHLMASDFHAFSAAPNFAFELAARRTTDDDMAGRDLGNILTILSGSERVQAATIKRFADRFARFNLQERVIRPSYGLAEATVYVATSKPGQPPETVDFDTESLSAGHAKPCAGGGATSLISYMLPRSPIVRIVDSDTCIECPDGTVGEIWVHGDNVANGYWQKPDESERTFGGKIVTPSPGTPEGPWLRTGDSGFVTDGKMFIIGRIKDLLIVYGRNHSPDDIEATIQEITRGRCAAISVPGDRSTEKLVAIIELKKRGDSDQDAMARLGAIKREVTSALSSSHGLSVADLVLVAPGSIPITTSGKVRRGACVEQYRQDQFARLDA
# test.method.notes: Fluorescence polarization aasay to screen for inhibitors that compete for the binding of FadD28 to a bisubstrate Measured in Biochemical System Using Plate Reader - 2147-01_Inhibitor_Dose_CherryPick_Activity.
# Assay type: functional, Mycobacterium tuberculosis H37Rv
Calls of active or inactive are those of the source.
Field 'call' accepts t (active), f (inactive)

Cc1nc2c(C(=O)NCCC3=CCCCC3)cnn2c(O)c1Cl : f
COc1ccc(/C=C2\SC(=O)N(CC(=O)Nc3cccnc3)C2=O)cc1OC : f
COc1ccc(C(=O)Oc2ccc(/C=N/Nc3ccc(Cl)c(C(=O)O)c3)cc2OC)cc1 : t

Prompt: Tell me the recorded outcome of this test for "O=C(NN1C(=O)/C(=C/c2cccc(O)c2)SC1=S)c1ccccc1O" .
Response: t

###

I'd be grateful if you could share measured EC50 for these entries.
# test.method.notes: Luminescence Cell-Based Dose Response HTS to Identify Inhibitors of 5'UTR Stem-Loop Driven Prion Protein mRNA Translation in H4 Neuroglioblastoma Cells. [Related pubchem assays: 1827 (Project Summary), 1813 (Primary HTS)]
# Assay type: functional
Active and inactive are the calls of the source.

Field: example entries. Status: answers known.
COc1ccc(Cn2c(SCc3ccc(C)cc3)nc3cc(OC)c(OC)cc3c2=N)cc1Cl : > 120 µM (not active)
CO/C(O)=C1\C(C)=Nc2nnnn2C1c1cc(OC)ccc1OC (centres undefined) : 18.3 µM (active)
Cc1ccc(C(=O)c2cc([N+](=O)[O-])ccc2N2CCCCC2)cc1 : 0.303 µM (active)

Prompt: Requested read-out: EC50. Entry: "O=C(CNc1ccc2c(c1)OCO2)N/N=C\c1cn(Cc2ccccc2)c2ccccc12"
Response: 10.5 µM (active)

###

# measurement.target: Heat shock factor protein 1 (Mus musculus)
# Sequence (P38532 whole entry): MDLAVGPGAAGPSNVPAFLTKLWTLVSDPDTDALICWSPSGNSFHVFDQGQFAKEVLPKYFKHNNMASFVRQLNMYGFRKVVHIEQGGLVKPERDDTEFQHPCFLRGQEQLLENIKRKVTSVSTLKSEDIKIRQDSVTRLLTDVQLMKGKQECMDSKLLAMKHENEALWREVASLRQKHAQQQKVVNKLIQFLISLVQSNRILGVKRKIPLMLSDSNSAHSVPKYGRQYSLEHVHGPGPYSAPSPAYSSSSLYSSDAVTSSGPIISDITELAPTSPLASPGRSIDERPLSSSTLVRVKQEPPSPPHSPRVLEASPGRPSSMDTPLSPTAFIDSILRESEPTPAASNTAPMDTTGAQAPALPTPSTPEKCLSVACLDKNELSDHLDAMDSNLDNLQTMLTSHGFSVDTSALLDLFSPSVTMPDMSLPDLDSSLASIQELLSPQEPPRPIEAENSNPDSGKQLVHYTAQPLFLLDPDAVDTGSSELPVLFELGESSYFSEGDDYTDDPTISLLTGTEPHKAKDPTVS
# test.method.notes: enhancement of HSF1-driven luciferase signal – cell-based, NIH3T3, luminescence, dose retest, confirmation (AID 435004);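 also: stress induced by proteasome inhibitor MG132 added 30 min after compound; luciferase reporter driven by HSF1 response element in NIH3T3 cells; actives raise luminescence as potentiators of the MG132 stress response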
# Assay type: functional
Active and inactive are the calls of the source.
Field 'call' accepts active, inactive

Study these solved cases before continuing.
C=CCN1CCc2cccc3c2[C@H]1Cc1ccc(O)c(O)c1-3 : inactive
COC(=O)[C@@H](Cc1c[nH]c2ccccc12)NC(=O)c1ccc2c(c1)OCO2 : inactive
O=C(CCc1nnc(Cc2ccc(-c3ccccc3)cc2)o1)N1CCCC1 : inactive
COc1ccc(NC(=O)c2nn(C)c(=O)c3ccccc23)cc1S(=O)(=O)Nc1ccccc1Cl : active
COc1cc(C(Nc2ccccn2)c2ccc3ccc(C)nc3c2O)cc(OC)c1O (stereo unspecified) : active

Prompt: Tell me the recorded outcome of this test for "Cc1ccc(NNC(=O)c2cccs2)cc1Cl" .
Response: inactive

Prompt: Tell me the recorded outcome of this test for "Cn1c(CO)cnc1SCC(=O)c1ccc(Cl)cc1" .
Response: inactive

Prompt: Tell me the recorded outcome of this test for COc1cc(/C=N/NC(=S)NC2CC3C=CC2C3)cc(OC)c1OC (stereo unspecified) .
Response: inactive

Prompt: Tell me the recorded outcome of this test for "O=[N+]([O-])c1cccc(-c2nnc(CNC3CC3)o2)c1" .
Response: inactive

Prompt: Tell me the recorded outcome of this test for "CCOc1ccc2[nH]c(SCc3ccc(C(=O)OC)o3)nc2c1" .
Response: inactive

Prompt: Tell me the recorded outcome of this test for "COc1ccc(C(=O)c2coc3ccc(O)c(CN(C)C)c23)cc1" .
Response: inactive

Prompt: Tell me the recorded outcome of this test for "CCc1cccc(NC(=O)c2cccc(S(=O)(=O)N3CCN(C)CC3)c2)c1" .
Response: inactive

###

# measurement.target: Aminopeptidase N (Plasmodium falciparum FcB1/Columbia)
# Sequence (O96935 whole entry): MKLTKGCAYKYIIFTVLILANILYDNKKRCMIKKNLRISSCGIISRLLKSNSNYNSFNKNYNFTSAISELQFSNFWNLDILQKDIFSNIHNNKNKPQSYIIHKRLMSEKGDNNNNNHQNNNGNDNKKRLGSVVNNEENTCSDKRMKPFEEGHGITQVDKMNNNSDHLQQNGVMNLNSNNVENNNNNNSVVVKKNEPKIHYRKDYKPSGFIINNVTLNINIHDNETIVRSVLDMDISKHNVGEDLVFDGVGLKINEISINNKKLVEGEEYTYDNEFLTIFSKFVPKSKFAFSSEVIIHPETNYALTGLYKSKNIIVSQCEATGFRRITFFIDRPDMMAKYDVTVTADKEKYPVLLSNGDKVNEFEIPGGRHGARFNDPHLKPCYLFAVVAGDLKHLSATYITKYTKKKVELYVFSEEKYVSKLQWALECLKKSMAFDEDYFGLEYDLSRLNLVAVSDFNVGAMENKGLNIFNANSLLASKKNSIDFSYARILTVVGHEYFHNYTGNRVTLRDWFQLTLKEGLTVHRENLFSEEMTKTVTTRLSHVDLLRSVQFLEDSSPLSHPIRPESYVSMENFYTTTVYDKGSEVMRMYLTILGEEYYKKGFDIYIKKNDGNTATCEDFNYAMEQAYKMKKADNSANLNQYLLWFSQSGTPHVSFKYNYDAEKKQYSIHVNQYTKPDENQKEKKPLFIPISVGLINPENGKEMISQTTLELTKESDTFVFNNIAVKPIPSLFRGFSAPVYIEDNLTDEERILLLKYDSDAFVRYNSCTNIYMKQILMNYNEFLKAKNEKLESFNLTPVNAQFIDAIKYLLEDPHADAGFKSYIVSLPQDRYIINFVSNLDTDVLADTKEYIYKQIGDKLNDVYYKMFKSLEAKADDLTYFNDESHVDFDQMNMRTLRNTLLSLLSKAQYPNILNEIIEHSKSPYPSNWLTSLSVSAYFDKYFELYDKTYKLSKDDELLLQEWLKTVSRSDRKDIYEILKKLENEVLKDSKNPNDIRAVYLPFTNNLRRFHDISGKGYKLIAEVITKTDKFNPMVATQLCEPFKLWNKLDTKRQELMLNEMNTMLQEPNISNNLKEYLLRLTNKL
# test.method.notes: malaria alanyl aminopeptidase activity blockers – biochemical, fluorogenic H-Leu-NHMec substrate, 1536-well (AID 1445)
# Design: species or system Plasmodium falciparum 3D7, 3D7
Activity calls are given as the source filed them.
I'd be grateful if you could share measured IC50 for these entries.

Field: example entries. Status: answers known.
Cc1c(C(c2ccccc2Cl)c2c(O)oc3ccccc3c2=O)c(=O)n(-c2ccccc2)n1C (stereo not given) : 77.1 µM (active)
CC(/C=C1\SC(=S)N(C(C(=O)O)c2ccccc2)C1=O)=C\c1ccccc1 (stereo not given) : 12.4 µM (active)
O=C(CSc1nnc(-c2ccccc2O)n1Cc1ccccc1)NNC(=O)c1ccccc1O : 130 µM (active)
COc1ccc(OC)c(C2C3=C(O)CCCC3=NC(C)=C2C(=O)Nc2cccnc2)c1 (stereo not given) : 52.9 µM (active)

Field: next compound
Prompt: Requested read-out: IC50. Entry: "O=Cc1cn(CC(=O)N2CCCc3ccccc32)c2ccccc12"
Response: 22.8 µM (active)

###

# test.method.notes: loss of viability in HepG2 cells – cell-based, CellTiter-Glo, cherry-picked, cytotoxicity control for Shn3 inhibitor project, dose response (AID 624134)
# Format: functional
Calls of active or inactive are those of the source.
Field 'call' accepts label 1 (active), label 0 (inactive)

Study these solved cases before continuing.
COC(=O)c1c(-c2cccc3ccccc23)csc1NC(=O)Cc1ccc(OC)c(OC)c1 : label 0
O=C(Nc1nc(-c2ccccn2)cs1)c1ccccc1-n1cnnn1 : label 1
CC(=O)c1cn(CCOc2cc(C)ccc2C)c2ccccc12 : label 1
COC(=O)C1CN(C#N)N(c2ccc(Cl)cc2)C12c1ccccc1-c1ccccc12 (stereo not given) : label 1
Cc1cc(Cl)n2c(nc3cc(F)c(F)cc32)c1C#N : label 1

Prompt: Tell me the recorded outcome of this test for "CCOC(=O)c1cnc(-n2nc(C)cc2C)nc1NNc1cc(C)nc(-c2ccccc2)n1" .
Response: label 1

Prompt: Tell me the recorded outcome of this test for "O=C(Nc1nc2ccccc2s1)C1CCN(S(=O)(=O)c2cc([N+](=O)[O-])ccc2Cl)CC1" .
Response: label 1

Prompt: Tell me the recorded outcome of this test for "O=S(=O)(c1cc(F)ccc1F)N1CCN(c2ncnc3ccccc23)CC1" .
Response: label 1

Prompt: Tell me the recorded outcome of this test for O=C(C1CCC(CNS(=O)(=O)c2cccs2)CC1)N1CCN(c2ccc(Cl)cc2)CC1 (stereo not given) .
Response: label 1

Prompt: Tell me the recorded outcome of this test for "Cc1ccc(Cn2ccc(=O)c(OCc3c(Cl)cccc3Cl)c2C)cc1" .
Response: label 1

###

I'd be grateful if you could share measured EC50 for these entries.
# Test system: Streptococcus sp. 'group A'
# test.method.notes: Streptococcus pyogenes SK(-)GAS viability under kanamycin – luminescence, BacTiterGlo, confirmation, counter-screen for streptokinase expression inhibitor project, dose response (AID 1900)
# Format: functional, organism-based
Active and inactive are the calls of the source.

Field: example entries. Status: answers known.
Clc1ccc(-n2c(-c3cccc(Br)c3)nc3nc4ccccc4nc32)cc1 : 1.58 µM (active)
CCOC(=O)c1sc(NC(=O)Nc2ccc(Cl)cc2)cc1C : 6.12 µM (active)
CCOC(=O)c1cnc(-n2nc(C)cc2C)nc1NNc1cc(C)nc(-c2ccccc2)n1 : 0.344 µM (active)
CCCCCn1cc[n+](C2=C([N-]S(=O)(=O)c3ccccc3)C(=O)c3ccccc3C2=O)c1 : 1.15 µM (active)

Fill in EC50 for each of the 2 compounds listed.
1. Cc1cc(N/N=C/c2cccc(Cl)c2)nc(-n2nc(C)cc2C)n1
2. CNC(=O)/C(C#N)=C\c1cc(C)n(-c2ccc(N3CCOCC3)cc2)c1C

Response:
["1.34 µM (active)", "30.4 µM (active)"]

###

# measurement.target: Apoptotic protease-activating factor 1 (Homo sapiens, UniProt O14727)
# Sequence (O14727 whole entry): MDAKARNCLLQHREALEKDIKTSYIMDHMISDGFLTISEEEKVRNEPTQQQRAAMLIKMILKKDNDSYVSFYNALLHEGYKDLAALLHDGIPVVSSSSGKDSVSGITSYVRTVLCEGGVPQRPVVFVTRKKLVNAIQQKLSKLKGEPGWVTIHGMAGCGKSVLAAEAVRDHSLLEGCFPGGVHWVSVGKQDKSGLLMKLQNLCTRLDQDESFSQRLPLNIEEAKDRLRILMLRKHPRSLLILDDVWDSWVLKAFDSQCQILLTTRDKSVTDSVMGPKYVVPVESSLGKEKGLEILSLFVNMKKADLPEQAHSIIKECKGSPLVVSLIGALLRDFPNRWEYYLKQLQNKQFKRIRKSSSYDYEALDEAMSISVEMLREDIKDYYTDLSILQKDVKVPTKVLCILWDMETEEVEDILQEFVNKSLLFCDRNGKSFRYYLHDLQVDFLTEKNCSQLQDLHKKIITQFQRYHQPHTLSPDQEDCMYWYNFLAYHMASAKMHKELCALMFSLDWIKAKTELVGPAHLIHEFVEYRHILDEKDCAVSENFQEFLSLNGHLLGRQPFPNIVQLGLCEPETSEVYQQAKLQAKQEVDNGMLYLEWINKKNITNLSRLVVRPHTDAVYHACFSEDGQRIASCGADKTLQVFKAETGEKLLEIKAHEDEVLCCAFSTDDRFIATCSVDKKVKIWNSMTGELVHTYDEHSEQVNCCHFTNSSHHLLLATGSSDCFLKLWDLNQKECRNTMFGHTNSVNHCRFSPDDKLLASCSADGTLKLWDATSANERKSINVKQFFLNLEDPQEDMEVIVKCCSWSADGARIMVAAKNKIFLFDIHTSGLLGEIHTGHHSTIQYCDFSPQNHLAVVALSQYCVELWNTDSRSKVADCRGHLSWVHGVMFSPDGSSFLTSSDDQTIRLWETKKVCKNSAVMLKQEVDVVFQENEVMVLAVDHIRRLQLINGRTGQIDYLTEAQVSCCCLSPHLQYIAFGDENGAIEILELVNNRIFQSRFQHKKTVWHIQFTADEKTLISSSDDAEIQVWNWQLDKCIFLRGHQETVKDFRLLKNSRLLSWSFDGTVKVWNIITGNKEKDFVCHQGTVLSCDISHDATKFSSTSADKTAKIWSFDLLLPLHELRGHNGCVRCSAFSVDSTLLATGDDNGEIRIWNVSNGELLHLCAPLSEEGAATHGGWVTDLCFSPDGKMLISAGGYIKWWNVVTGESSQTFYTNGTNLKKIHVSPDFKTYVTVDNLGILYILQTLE
# Type: functional
The source made the active and inactive calls.
endpoint.name: IC50

Field: example entries. Status: answers known.
C#CCOCCOCCOCCNc1nc(N2CCN(C(=O)CCCCCCCCCCNC(=O)[C@H]([C@@H](C)CC)n3cc(CCCCCN)nn3)CC2)nc(N2CCN(C(=O)CCCCCCCCCCNC(=O)[C@H](CO)n3cc(CCCCCN)nn3)CC2)n1 : 25 µM (active)
O=C(O)c1ccc(NC2=C(n3nnc4ccccc43)C(=O)c3ccccc3C2=O)cc1 : 7.8 µM (active)
O=C1C(NS(=O)(=O)c2ccc(Cl)cc2)=C(N2CCCCC2)C(=O)c2ccccc21 : 30.5 µM (active)
CCCCCCCCCCOC(=O)C[n+]1c(COc2cccc(C)c2)n(C)c2ccccc21 : 15.9 µM (active)

Field: next molecule
Prompt: Requested read-out: IC50. Entry: "CCCCCn1cc[n+](C2=C([N-]S(=O)(=O)c3ccccc3)C(=O)c3ccccc3C2=O)c1"
Response: 13.8 µM (active)

Entry source: ChEMBL document CHEMBL1201862
